- Run description: xn = mol fraction of the nth substance listed, in the solute-free solvent
- Condition context: 313.15 K; x2 = 0.4117
Reported endpoint: solubility (g/100 g solution)

In the examples that follow, each entry is paired with its recorded solubility (g/100 g solution).
Compound	solubility (g/100 g solution)
O=[N+]([O-])c1cc[nH]n1 + CCCO + O	5.64
CS(=O)(=O)c1ccc(C(O)C(CF)NC(=O)C(Cl)Cl)cc1 (centres undefined) + CC(C)O + O	1.78

(a) COC(=O)C1=C(C)NC(C)=C(C(=O)OCC(C)C)C1c1ccccc1[N+](=O)[O-] (centres undefined) + CCCO + O
(b) CC(=O)Nc1ccc(OC(=O)c2ccccc2OC(C)=O)cc1 + CC(C)O + O
Record comparison, field solubility (g/100 g solution): mark the lower of a and b . Let me know the label of the one you choose.
b

The values you see were collected from the CheMixHub drug solubility set.
